- tested target: full length active recombinant SYK enzyme (Homo sapiens)
- Construct: full length active recombinant SYK enzyme (Millipore, Calif.)
- protocol text: Inhibition of Syk tyrosine phosphorylation activity (LANCE TR-FRET kinase assay)
Listed next: entries and their corresponding IC50.

For orientation, consider the following solved cases.
                                chem_smiles                             tested_target             val
0  Cn1ncc2cc(Nc3nc(N[C@@H]4CCCC[C@@H]4N)c(F)cc3C(N)=O)ccc21  full length active recombinant SYK enzyme (Homo sapiens)      1 to 10 nM
1  Cc1cc(C)cc(Nc2nc(N[C@@H]3CCCC[C@@H]3N)c(F)cc2C(N)=O)c1  full length active recombinant SYK enzyme (Homo sapiens)      1 to 10 nM
2  Cc1cc(Nc2cc(N[C@@H]3CCCC[C@@H]3N)ccc2C(N)=O)on1  full length active recombinant SYK enzyme (Homo sapiens)  100 to 1000 nM

GET /value?item= CC(C)Cn1ccc2c(Nc3nc(N[C@@H]4CCCC(F)(F)[C@@H]4N)c(F)cc3C(N)=O)cccc21 &field=IC50 returns 100 to 1000 nM

GET /value?item= NC(=O)c1cc(F)c(N[C@@H]2CCCC[C@@H]2N)nc1Nc1cccc(-c2ncccn2)c1 &field=IC50 returns 1 to 10 nM

GET /value?item= NC(=O)c1cc(F)c(N[C@@H]2CCCC(F)(F)[C@@H]2N)nc1Nc1ccc2ncccc2c1 &field=IC50 returns 10 to 100 nM

GET /value?item= CC[C@H](Nc1nc(Nc2ccc(C)cc2)c(C(N)=O)cc1F)C1(N)CC1 &field=IC50 returns > 1000 nM

----------
- tested target: full length active recombinant SYK enzyme (Homo sapiens, UniProt P43405)
- Construct: full length active recombinant SYK enzyme (Millipore, Calif.); purchased Millipore
- protocol text: Inhibition of Syk tyrosine phosphorylation activity (LANCE TR-FRET kinase assay)
- Type: biochemical
pIC50: −log10 of the molar value.
Listed next: entries and their corresponding pIC50.

For orientation, consider the following solved cases.
                                chem_smiles                             tested_target           val
0  CC[C@@H](Nc1nc(Nc2ccc3ccncc3c2)c(C(N)=O)cc1F)C(N)=O  full length active recombinant SYK enzyme (Homo sapiens, UniProt P43405)  7.00 to 8.00
1  COC[C@@H](Nc1cc(Nc2cc(C)ns2)c(C(N)=O)cc1F)C(N)=O  full length active recombinant SYK enzyme (Homo sapiens, UniProt P43405)  7.00 to 8.00
2  CC[C@@H](Nc1nc(Nc2cnc3ccccc3c2)c(C(N)=O)cc1F)C(N)=O  full length active recombinant SYK enzyme (Homo sapiens, UniProt P43405)  7.00 to 8.00
3  NC(=O)c1cc(F)c(N[C@@H]2CCCC[C@@H]2N)nc1Nc1ccc(-c2ncccn2)cc1  full length active recombinant SYK enzyme (Homo sapiens, UniProt P43405)  8.00 to 9.00
4  Cc1cc(Nc2cc(N[C@H](Cc3ccccc3)C(N)=O)ccc2C(N)=O)sn1  full length active recombinant SYK enzyme (Homo sapiens, UniProt P43405)  7.00 to 8.00

Turning now to a further record.
GET /value?item= NC(=O)c1cc(F)c(N[C@@H]2CCCC[C@@H]2N)nc1Nc1cnc2nccnc2c1 &field=pIC50 returns 7.00 to 8.00

----------
- tested target: full length active recombinant SYK enzyme (Homo sapiens, UniProt P43405)
- Construct: full length active recombinant SYK enzyme (Millipore, Calif.)
- protocol text: Inhibition of Syk tyrosine phosphorylation activity (LANCE TR-FRET kinase assay)
pIC50: −log10 of the molar value.
endpoint name: pIC50

>>> print(df.to_string())
                                   compound           val
0  NC(=O)c1cc(F)c(N[C@@H]2CCCC[C@@H]2N)nc1Nc1ccnc2ncccc12 [Example 151]  8.00 to 9.00
1  N#Cc1cc(C(N)=O)c(Nc2cccc(-c3ccccn3)c2)nc1N[C@@H]1CCCC[C@@H]1N [Example 131]  8.00 to 9.00
2  N#Cc1cc(C(N)=O)c(Nc2ccc3ncccc3c2)nc1N[C@@H]1CCCC[C@@H]1N [Example 113]  8.00 to 9.00
3  CC(C)C[C@@H](Nc1nc(Nc2ccc(F)c(Cl)c2)c(C(N)=O)cc1F)C(N)=O [Example 266]  7.00 to 8.00
4  Cc1cc(Nc2cc(N[C@H](CC(C)C)C(N)=O)cc(F)c2C(N)=O)sn1 [Example 19]        < 6.00

GET /value?item= NC(=O)c1ccc(N[C@H](CC2CC2)C(N)=O)nc1Nc1cnc2ccccc2c1 [Example 212] &field=pIC50 returns 8.00 to 9.00

GET /value?item= NC(=O)c1cnc(N[C@@H]2CCCC[C@@H]2N)cc1Nc1csc2ncccc12 [Example 422] &field=pIC50 returns < 6.00

GET /value?item= CC[C@@H](Nc1nc(Nc2ccc3c(cnn3C)c2)c(C(N)=O)cc1F)C(N)=O [Example 241] &field=pIC50 returns 7.00 to 8.00

GET /value?item= NC(=O)c1cc(F)c(N[C@@H]2CCCC(F)(F)[C@@H]2N)nc1Nc1cccc(Cl)c1 [Example 336] &field=pIC50 returns 6.00 to 7.00

GET /value?item= NC(=O)c1cc(F)c(N[C@H]2CCCNC2)nc1Nc1ccc2ncccc2c1 [Example 143] &field=pIC50 returns < 6.00

GET /value?item= CC[C@@H](Nc1nc(Nc2ccc3ccccc3c2)c(C(N)=O)cc1F)C(N)=O [Example 233] &field=pIC50 returns 8.00 to 9.00

GET /value?item= Cc1cccc(Nc2nc(N[C@@H]3CCCC[C@@H]3N)c(F)cc2C(N)=O)c1 [Example 314] &field=pIC50 returns 8.00 to 9.00

GET /value?item= NC(=O)c1cc(F)c(N[C@@H]2CCCC[C@@H]2N)nc1Nc1cccc(-c2cncnc2)c1 [Example 57] &field=pIC50 returns 8.00 to 9.00

GET /value?item= NC(=O)c1ccc(N[C@@H]2CCCC[C@@H]2N)nc1Nc1ccc2ccncc2c1 [Example 137] &field=pIC50 returns 8.00 to 9.00

GET /value?item= NC(=O)c1cc(F)c(N[C@@H]2CCCC[C@@H]2N)nc1Nc1ccnnc1 [Example 84] &field=pIC50 returns 6.00 to 7.00

GET /value?item= NC(=O)c1ccc(N[C@@H]2CCCC[C@@H]2N)nc1Nc1cccc(-n2nccn2)c1 [Example 132] &field=pIC50 returns 8.00 to 9.00

GET /value?item= Cc1cncc(Nc2nc(N[C@@H]3CCCC[C@@H]3N)ccc2C(N)=O)c1 [Example 256] &field=pIC50 returns 8.00 to 9.00

GET /value?item= C[C@H](N)CNc1nc(Nc2cccc(-n3cccn3)c2)c(C(N)=O)cc1F [Example 259] &field=pIC50 returns 8.00 to 9.00

----------
- tested target: full length active recombinant SYK enzyme (Homo sapiens, UniProt P43405)
- Construct: full length active recombinant SYK enzyme (Millipore, Calif.)
- protocol text: Inhibition of Syk tyrosine phosphorylation activity (LANCE TR-FRET kinase assay)
pIC50: −log10 of the molar value.
endpoint name: pIC50

>>> df
                                chem_smiles           val
0  CN1C(=O)Cc2c(Nc3nc(N[C@@H]4CCCC(F)(F)[C@@H]4N)c(F)cc3C(N)=O)cccc21        < 6.00
1  NC(=O)c1cc(F)c(N[C@@H]2CCCC[C@@H]2N)nc1Nc1cncc(-c2ncccn2)c1  8.00 to 9.00
2  NC(=O)c1ccc(N[C@@H]2CCCC[C@@H]2N)nc1Nc1cnc2cccnc2c1  8.00 to 9.00

GET /value?item= NC(=O)c1cc(F)c(N[C@@H]2CCCC(F)(F)[C@@H]2N)nc1Nc1cccc2ncsc12 &field=pIC50 returns 6.00 to 7.00

GET /value?item= NC(=O)c1ccc(N[C@@H]2CCCC[C@@H]2N)nc1Nc1cncc(-n2ccnc2)c1 &field=pIC50 returns 8.00 to 9.00

GET /value?item= NC(=O)c1cc(F)c(N[C@@H]2CCCC[C@@H]2N)nc1Nc1ccc(-n2cncn2)cc1 &field=pIC50 returns 8.00 to 9.00

GET /value?item= Cc1cc(Nc2cc(N[C@H](CC(C)C)C(N)=O)c(F)cc2C(N)=O)sn1 &field=pIC50 returns 7.00 to 8.00

GET /value?item= NC(=O)c1cc(F)c(N[C@@H]2CCNC2)nc1Nc1ccc2ncccc2c1 &field=pIC50 returns 7.00 to 8.00

----------
- tested target: full length active recombinant SYK enzyme (Homo sapiens)
- Construct: full length active recombinant SYK enzyme (Millipore, Calif.)
- protocol text: Inhibition of Syk tyrosine phosphorylation activity (LANCE TR-FRET kinase assay)
pIC50: −log10 of the molar value.
endpoint name: pIC50

>>> df
                                   compound           val
0  N#Cc1cc(C(N)=O)c(Nc2cnc3ccccc3c2)nc1N[C@@H]1CCCC[C@@H]1N [Example 129]  8.00 to 9.00
1  COc1cc(F)cc(Nc2nc(N[C@@H]3CCCC[C@@H]3N)c(F)cc2C(N)=O)c1 [Example 326]        > 9.00
2  NC(=O)c1cc(F)c(N[C@@H]2CCCC[C@@H]2N)nc1Nc1cccc2ccncc12 [Example 75]  6.00 to 7.00
3  N#Cc1cc(C(N)=O)c(Nc2ccc3ncsc3c2)nc1NC[C@@H](N)C1CC1 [Example 119]  7.00 to 8.00

GET /value?item= NC(=O)c1cc(F)c(N[C@H]2[C@@H](N)CCCC2(F)F)nc1Nc1cccc(-n2nccn2)c1 [Example 340] &field=pIC50 returns 8.00 to 9.00

GET /value?item= CC[C@@H](Nc1nc(Nc2cc(C)ns2)c(C(N)=O)cc1F)C(N)=O [Example 239] &field=pIC50 returns 7.00 to 8.00

GET /value?item= CC[C@@H](Nc1nc(Nc2cccc(OC(F)F)c2)c(C(N)=O)cc1F)C(N)=O [Example 264] &field=pIC50 returns 6.00 to 7.00

GET /value?item= Cc1cccc(Nc2nc(N[C@H](CC(C)C)C(N)=O)ccc2C(N)=O)c1 [Example 105] &field=pIC50 returns 6.00 to 7.00
